- assay_explanation: qHTS assay for MDR1-selective chemotherapeutics: Primary screen using the drug-selected MDR subline cells KB-V1; also: nearly all actives have a fitted effect of over 60% in size
- run_parameters: KB-V1 MDR cells viability, CellTiter-Glo, 72 h; series mostly up to 46.1 µM
Among all 400,000 compounds or so, about 13,000 (3.2%) were called active. Another 18% or so got no clear call; they are omitted. Calls follow the shape of the dose curve; as a rule, active = well fitted cell-killing curve with a large enough effect; inconclusive = small, poorly fitted or top-dose-only effect, or effect the other way; inactive = flat fitted curve, though single readings scatter. The sample holds actives, similar compounds and a random draw of the others, so the mix is not that of the screen.
Outcome field: choose from yes (active), no (inactive)

-- ask Recorded test outcome, item CC(C)CCn1c(CN(C)Cc2ccccc2)nc2c1c(=O)n(C)c(=O)n2C
-- reply yes

-- ask Recorded test call requested for COc1ccc2c(c1)C(SCC(=O)NCc1ccccc1)CC(C)(C)O2 (stereo not given)
-- reply no

-- ask // outcome(item) with item = C[C@]1(C(=O)NCCc2c[nH]c3ccccc23)C=C[C@@H](Cc2ccccc2)N1C(=O)c1ccccc1
-- reply no

-- ask Outcome logged for Cn1c(=O)c2c(nc(NCc3ccccc3)n2CC(N)=O)n(C)c1=O in this assay:
-- reply no

-- ask How was COc1ccc(CCNc2nc(C)cc(C)n2)cc1OC classified in this test?
-- reply no
